Origin of the recorded values: patent US10738028B2

Would you kindly list MIC (anti-bacterial activity) for each of these molecules?
# System: methicillin-sensitive Staphylococcus aureus (MSSA)
# Assay explanation: MIC, two-fold agar dilution (CLSI), clinical isolates
# Format: cell-based
# Reported conditions: strain MSSA 15-4
Give bare numbers, in mg/L.

Take a look at these entries with their results.
O=CN(O)C[C@@H](CC1CCCC1)C(=O)N1CC2(CC2)C[C@H]1C(=O)Nc1ccc(N2CCOCC2)cc1 [Example 25] ... 0.25
CCCC[C@H](CN(O)C=O)C(=O)N1CC2(CC2)C[C@H]1C(=O)Nc1nncs1 [Example 23] ... 1
COC(=O)c1sccc1NC(=O)[C@@H]1CC2(CC2)CN1C(=O)[C@H](CC1CCCC1)CN(O)C=O [Example 34] ... 1
O=CN(O)C[C@@H](CC1CCCC1)C(=O)N1CC2(CC2)C[C@H]1C(=O)N1CCS(=O)(=O)CC1 [Example 35] ... 32

From here, focus on the item given below.
Req: System methicillin-sensitive Staphylococcus aureus (MSSA). Read-out MIC (anti-bacterial activity). Item CCCC[C@H](CN(O)C=O)C(=O)N1CC2(CC2)C[C@H]1C(=O)NC1CC1 [Example 18] . Report value.
Resp: 2

###

# Test system: BEL-7402 liver cancer cell line
# Assay explanation: CCK-8 proliferation inhibition
# Assay type: cell-based
# Reported conditions: Homo sapiens, Bel-7402, 72 hours
Would you kindly list IC50 for each of these compounds?
One number for each entry, in µM.

Take a look at these entries with their results.
O=C(C[C@@H](CC1CCCC1)C(=O)N1CC2(CC2)C[C@H]1C(=O)Nc1ccc(F)cn1)NO ... 5
O=C(C[C@@H](CC1CCCC1)C(=O)N1CC2(CC2)C[C@H]1C(=O)Nc1nc(C(F)(F)F)cs1)NO ... 10
Cc1cnc(NC(=O)[C@@H]2CC3(CC3)CN2C(=O)[C@H](CC2CCCC2)CN(O)C=O)s1 ... 7.57

Provide IC50 for all items below, preserving their order.
1. CCCC[C@H](CC(=O)NO)C(=O)N1CC2(CC2)C[C@H]1C(=O)Nc1cc(C(C)(C)C)on1
2. O=C(C[C@@H](CC1CCCC1)C(=O)N1CC2(CC2)C[C@@H]1c1nc2ccccc2[nH]1)NO

Resp:
1: 25.9; 2: 8.58

###

# Tested on: Streptococcus pneoumoniae (SPN)
# Assay explanation: MIC, two-fold agar dilution (CLSI), clinical isolates
# Assay type: cell-based
# Reported conditions: strain SPN 16-4
Would you kindly list MIC (anti-bacterial activity) for each of these compounds?
Numbers only, in µg/mL.

Take a look at these entries with their results.
Cc1csc(NC(=O)[C@@H]2CC3(CC3)CN2C(=O)[C@H](CC2CCCC2)CN(O)C=O)n1 [Example 33] ... 1
CCCC[C@H](CN(O)C=O)C(=O)N1CC2(CC2)C[C@H]1C(=O)Nc1cnccn1 [Example 15] ... 0.5
O=CN(O)C[C@@H](CC1CCCC1)C(=O)N1CC2(CC2)C[C@H]1C(=O)Nc1ncccc1F [Example 30] ... 1

Provide MIC (anti-bacterial activity) for all items below, preserving their order.
1. O=CN(O)C[C@@H](CC1CCCC1)C(=O)N1CC2(CC2)C[C@H]1C(=O)N1CCS(=O)(=O)CC1 [Example 35]
2. CCCC[C@H](CN(O)C=O)C(=O)N1CC2(CC2)C[C@H]1C(=O)Nc1nncs1 [Example 23]
3. CCCC[C@H](CN(O)C=O)C(=O)N1CC2(CC2)C[C@H]1C(=O)Nc1ccno1 [Example 17]
4. Cc1cc(NC(=O)[C@@H]2CC3(CC3)CN2C(=O)[C@H](CC2CCCC2)CN(O)C=O)no1 [Example 39]

Resp:
1: 32; 2: 1; 3: 1; 4: 4

Req: Fill in reported MIC (anti-bacterial activity) for this entry: O=CN(O)C[C@@H](CC1CCCC1)C(=O)N1CC2(CC2)C[C@H]1C(=O)Nc1ccncn1 [Example 27]
Resp: 2

###

# Test system: methicillin-sensitive Staphylococcus epidermidis (MSSE)
# Assay explanation: MIC, two-fold agar dilution (CLSI), clinical isolates
# Type: cell-based
# Reported conditions: strain MSSE 15-3
Readout: MIC (anti-bacterial activity) (µg/mL)
One number for each entry, in µg/mL.

Take a look at these entries with their results.
CCCC[C@H](CN(O)C=O)C(=O)N1CC2(CC2)C[C@H]1C(=O)Nc1ccno1 ... 1
CCCC[C@H](CN(O)C=O)C(=O)N1CC2(CC2)C[C@H]1C(=O)NC1CC1 ... 2

Provide MIC (anti-bacterial activity) for all items below, preserving their order.
1. COC(=O)c1sccc1NC(=O)[C@@H]1CC2(CC2)CN1C(=O)[C@H](CC1CCCC1)CN(O)C=O
2. O=CN(O)C[C@@H](CC1CCCC1)C(=O)N1CC2(CC2)C[C@H]1C(=O)Nc1cnccn1
3. CC(C)(C)c1cc(NC(=O)[C@@H]2CC3(CC3)CN2C(=O)[C@H](CC2CCCC2)CN(O)C=O)no1
4. Cc1cnc(NC(=O)[C@@H]2CC3(CC3)CN2C(=O)[C@H](CC2CCCC2)CN(O)C=O)s1
5. Cc1csc(NC(=O)[C@@H]2CC3(CC3)CN2C(=O)[C@H](CC2CCCC2)CN(O)C=O)n1
6. O=CN(O)C[C@@H](CC1CCCC1)C(=O)N1CC2(CC2)C[C@H]1C(=O)Nc1ccncn1
7. O=CN(O)C[C@@H](CC1CCCC1)C(=O)N1CC2(CC2)C[C@H]1C(=O)Nc1ccno1

Resp:
1: 4; 2: 0.125; 3: 0.25; 4: 0.125; 5: 0.125; 6: 0.125; 7: 1

###

# Test system: Moraxella catarrhalis (BCA)
# Assay explanation: MIC, two-fold agar dilution (CLSI), clinical isolates
# Type: cell-based
# Reported conditions: clinical isolate BCA 14-5
Would you kindly list Anti-bacterial activity (MIC), strain BCA 14-5 for each of these molecules?
One number for each entry, in µg/mL.

Take a look at these entries with their results.
O=C(C[C@@H](CC1CCCC1)C(=O)N1CC2(CC2)C[C@H]1C(=O)Nc1ccc(N2CCOCC2)cc1)NO [Example 61] ... 1
O=CN(O)C[C@@H](CC1CCCC1)C(=O)N1CC2(CC2)C[C@H]1c1nc2ccccc2[nH]1 [Example 42] ... 2
CCCC[C@H](CC(=O)NO)C(=O)N1CC2(CC2)C[C@H]1C(=O)Nc1cc(C(C)(C)C)on1 [Example 55] ... 1

Provide Anti-bacterial activity (MIC), strain BCA 14-5 for all items below, preserving their order.
1. O=C(C[C@@H](CC1CCCC1)C(=O)N1CC2(CC2)C[C@H]1C(=O)Nc1cnccn1)NO [Example 62]
2. CCCC[C@H](CC(=O)NO)C(=O)N1CC2(CC2)C[C@H]1C(=O)Nc1nc(C)cs1 [Example 51]
3. CCCC[C@H](CC(=O)NO)C(=O)N1CC2(CC2)C[C@H]1C(=O)Nc1cccnn1 [Example 48]
4. CCCC[C@H](CC(=O)NO)C(=O)N1CC2(CC2)C[C@H]1C(=O)Nc1ccncn1 [Example 45]
5. CCCC[C@H](CC(=O)NO)C(=O)N1CC2(CC2)C[C@H]1C(=O)Nc1cnccn1 [Example 44]
6. CCCC[C@H](CC(=O)NO)C(=O)N1CC2(CC2)C[C@H]1C(=O)Nc1ccno1 [Example 54]

Resp:
[0.5, 0.5, 8, 0.5, 1, 32]

Provide Anti-bacterial activity (MIC), strain BCA 14-5 for all items below, preserving their order.
1. CCCC[C@H](CC(=O)NO)C(=O)N1CC2(CC2)C[C@H]1C(=O)Nc1ncccc1F [Example 49]
2. CCCC[C@H](CC(=O)NO)C(=O)N1CC2(CC2)C[C@H]1C(=O)Nc1ccc(N2CCOCC2)cc1 [Example 43]
3. O=C(C[C@@H](CC1CCCC1)C(=O)N1CC2(CC2)C[C@H]1C(=O)Nc1ccc(F)cn1)NO [Example 64]

Resp:
1: 4; 2: 1; 3: 1

Provide Anti-bacterial activity (MIC), strain BCA 14-5 for all items below, preserving their order.
1. CCCC[C@H](CC(=O)NO)C(=O)N1CC2(CC2)C[C@H]1C(=O)Nc1ccc(F)cn1 [Example 46]
2. CCCC[C@H](CC(=O)NO)C(=O)N1CC2(CC2)C[C@H]1c1nc2ccccc2[nH]1 [Example 58]
3. Cc1cnc(NC(=O)[C@@H]2CC3(CC3)CN2C(=O)[C@@H](CC(=O)NO)CC2CCCC2)s1 [Example 65]
4. CCCC[C@H](CC(=O)NO)C(=O)N1CC2(CC2)C[C@H]1C(=O)Nc1nc(C(F)(F)F)cs1 [Example 57]

Resp:
0.5
8
0.125
0.5

Provide Anti-bacterial activity (MIC), strain BCA 14-5 for all items below, preserving their order.
1. CCCC[C@H](CC(=O)NO)C(=O)N1CC2(CC2)C[C@H]1C(=O)Nc1ncc(C)s1 [Example 47]
2. O=C(C[C@@H](CC1CCCC1)C(=O)N1CC2(CC2)C[C@H]1C(=O)Nc1ccncn1)NO [Example 63]
3. O=CN(O)C[C@@H](CC1CCCC1)C(=O)N1CC2(CC2)C[C@H]1C(=O)Nc1nncs1 [Example 41]
4. CCCC[C@H](CC(=O)NO)C(=O)N1CC2(CC2)C[C@H]1C(=O)Nc1cc(C)on1 [Example 56]

Resp:
1. 0.25
2. 0.25
3. 0.25
4. 1

Provide Anti-bacterial activity (MIC), strain BCA 14-5 for all items below, preserving their order.
1. CCCC[C@H](CC(=O)NO)C(=O)N1CC2(CC2)C[C@@H]1c1nc2ccccc2[nH]1 [Example 59]
2. O=CN(O)C[C@@H](CC1CCCC1)C(=O)N1CC2(CC2)C[C@H]1C(=O)Nc1nccs1 (stereo in doubt) [Example 40]

Resp:
1: 16; 2: 0.5
